Target: PRMT5 (Homo sapiens)
Construct: purchased Viva (custom protein)
Sequence (O14744 whole entry): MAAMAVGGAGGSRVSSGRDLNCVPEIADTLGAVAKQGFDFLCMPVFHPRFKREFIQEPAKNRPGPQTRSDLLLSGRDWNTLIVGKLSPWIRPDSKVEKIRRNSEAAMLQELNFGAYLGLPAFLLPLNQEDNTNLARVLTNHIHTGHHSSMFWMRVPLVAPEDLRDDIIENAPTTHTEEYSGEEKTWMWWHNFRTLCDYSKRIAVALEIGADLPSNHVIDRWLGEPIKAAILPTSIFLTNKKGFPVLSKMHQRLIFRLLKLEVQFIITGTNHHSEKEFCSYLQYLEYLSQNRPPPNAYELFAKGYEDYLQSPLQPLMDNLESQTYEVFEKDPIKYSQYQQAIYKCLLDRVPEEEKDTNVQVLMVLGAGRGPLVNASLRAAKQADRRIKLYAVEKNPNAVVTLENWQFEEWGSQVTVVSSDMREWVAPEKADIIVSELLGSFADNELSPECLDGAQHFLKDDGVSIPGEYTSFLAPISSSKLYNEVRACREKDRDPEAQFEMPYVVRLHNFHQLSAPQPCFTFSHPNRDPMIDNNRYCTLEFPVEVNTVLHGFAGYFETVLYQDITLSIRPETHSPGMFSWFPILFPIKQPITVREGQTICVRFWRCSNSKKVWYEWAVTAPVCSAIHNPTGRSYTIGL
Sequence (Q9BQA1 whole entry partner): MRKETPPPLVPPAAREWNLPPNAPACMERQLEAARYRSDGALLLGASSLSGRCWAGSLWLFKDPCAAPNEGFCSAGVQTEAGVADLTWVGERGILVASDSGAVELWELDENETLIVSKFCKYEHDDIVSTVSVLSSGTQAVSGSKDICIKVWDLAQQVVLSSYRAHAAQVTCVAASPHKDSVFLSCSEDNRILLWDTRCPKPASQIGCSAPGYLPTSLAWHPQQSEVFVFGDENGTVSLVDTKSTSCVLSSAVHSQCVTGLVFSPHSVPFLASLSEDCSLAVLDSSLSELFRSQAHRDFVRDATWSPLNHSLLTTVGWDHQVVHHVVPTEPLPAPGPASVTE
Experiment: PRMT5 IC50 assay in the presence of MTA as cofactor
Assay type: biochemical
Details: PRMT5, MTA as cofactor
Description: Table 1a indicates IC50 values (μM) against PRMT5 for exemplary compounds in the presence of SAM as cofactor, with no cofactor and with MTA as cofactor, respectively (columns 3-5). […] The Ki values can be calculated from the IC50 values as described in the Examples section. As detailed in the Examples section, for the assay performed in the presence of SAM, IC50=Ki×1.5 (Ki=IC50/1.5). For the assay performed in the presence of MTA, IC50=Ki×13.5 (Ki=IC50/13.5). […]
pIC50: −log10 of the molar value.
Attribute measured: pIC50

Known pIC50 results, listed for orientation:
Molecule: CC(=O)N1CCC(Nc2cc(C(=O)NC[C@@H](O)CN3CCc4c(C)c(OCc5ocnc5C)cc(F)c4C3)cc(N3CCCCC3)n2)CC1 [Compound 652]
pIC50: 6.30 to 7.30
//
Molecule: CC(=O)N1CCC(Nc2cc(C(=O)NC[C@H](O)CN3CCc4cc(OCc5ocnc5C)ccc4C3)cc(N(C)C)n2)CC1 [Compound 629]
pIC50: 6.30 to 7.30
//
Molecule: Cc1ncoc1COc1ccc2c(c1)CCN(C[C@@H](O)CNC(=O)c1cc(NC3CC4(CC4)C3)nc(N3CCN(C(=O)C4CC4)CC3)c1)C2 [Compound 611]
pIC50: > 7.30
//
Molecule: O=C(NC[C@H](O)CN1CCc2c(ccc(OCc3cnco3)c2Br)C1)c1ccnc(NC2CCC2)c1 [Compound 255]
pIC50: 6.30 to 7.30
//
Molecule: CCC(=O)N1CCN(c2nc(NC3COC3)cc(C(=O)NC[C@H](O)CN3CCc4cc(OCc5cnco5)ccc4C3)n2)CC1 [Compound 309]
pIC50: 6.30 to 7.30
//
Molecule: COc1ccc(C(=O)N2CCc3cc(C(=O)NC[C@H](O)CN4CCc5cc(OCc6ocnc6C)ccc5C4)ccc3C2)cc1 [Compound 498]
pIC50: 6.30 to 7.30

Could you report pIC50 for every entry in the following list?
1. O=C(NC[C@H](O)CN1CCc2cc(OCc3cnco3)c(Cl)cc2C1)c1ccnc(NC2CCC2)c1 [Compound 281]
2. COCCN(C)c1nc(NC2COC2)cc(C(=O)NC[C@H](O)CN2CCc3c(ccc(OCc4ocnc4C)c3C)C2)n1 [Compound 398]
3. Cc1ncoc1COc1ccc2c(c1)CCN(C[C@@H](O)CNC(=O)c1ccc(OC3CCN(Cc4ccncc4)CC3)cc1)C2 [Compound 416]
4. CCCC(=O)N1CCC(Nc2cc(C(=O)NC[C@H](O)CN3CCc4c(ccc(OCc5cnco5)c4C)C3)ccn2)CC1 [Compound 470]

1: 6.30 to 7.30; 2: 6.30 to 7.30; 3: 6.30 to 7.30; 4: 6.30 to 7.30

Dear colleague, could you please provide pIC50 for the molecules listed below?
1. CC(=O)N1CCC(Nc2cc(C(=O)NC[C@H](O)CN3CCc4cc(OCc5ocnc5C)ccc4C3)cc(N3CCCCC3)n2)CC1 [Compound 587]
2. CN(C)CCOc1cc(C(=O)NC[C@H](O)CN2CCc3c(ccc(OCc4cnco4)c3Cl)C2)cc(NC2CCC2)n1 [Compound 329]
3. Cc1c(OCc2cnco2)ccc2c1CCN(C[C@@H](O)CNC(=O)c1cc(NC3CN(C(=O)CC(C)C)C3)ncn1)C2 [Compound 565]

["6.30 to 7.30", "> 7.30", "5.30 to 6.30"]
